TARGET_UNDER_TEST: G4-forming oligonucleotide Pf8 (d[(G3T2CA)3G3])
PROTOCOL_DETAILS: Native electrospray mass spectrometry, Pf8
Assay type: binding, Plasmodium
RUN_PARAMETERS: 2:1 ligand:DNA complex; 100 mM TMAA, 1 mM KCl; read-out: Kd Pf8, stoichiometry 2 (Kd2)
Each record here notes measured pKd.
Lab note — pKd values are minus log10 of concentrations in M.

Would you please look over these solved cases?
INSERT INTO results (molecule, target_under_test, measured_number) VALUES
  ('CN(C)CCCCNCc1cc(-c2ccccc2)c2ccc3c(-c4ccccc4)cc(CNCCCCN(C)C)nc3c2n1 [Compound 1c]', 'G4-forming oligonucleotide Pf8 (d[(G3T2CA)3G3])', 4.30),
  ('CN(C)CCCCCNCc1cc(-c2ccccc2)c2ccc3c(-c4ccccc4)cc(CNCCCCCN(C)C)nc3c2n1 [Compound 1d]', 'G4-forming oligonucleotide Pf8 (d[(G3T2CA)3G3])', 4.80);

Kindly consider the entry below.
Inquiry: Name the reported pKd value associated with the molecule c1ccc(-c2cc(CNCCCN3CCCC3)nc3c2ccc2c(-c4ccccc4)cc(CNCCCN4CCCC4)nc23)cc1 [Compound 1l]
Reply text: 4.23
